- STUDY TARGET: TIE2 (Homo sapiens, UniProt Q02763)
- Sequence (Q02763 23-1124, species assumed): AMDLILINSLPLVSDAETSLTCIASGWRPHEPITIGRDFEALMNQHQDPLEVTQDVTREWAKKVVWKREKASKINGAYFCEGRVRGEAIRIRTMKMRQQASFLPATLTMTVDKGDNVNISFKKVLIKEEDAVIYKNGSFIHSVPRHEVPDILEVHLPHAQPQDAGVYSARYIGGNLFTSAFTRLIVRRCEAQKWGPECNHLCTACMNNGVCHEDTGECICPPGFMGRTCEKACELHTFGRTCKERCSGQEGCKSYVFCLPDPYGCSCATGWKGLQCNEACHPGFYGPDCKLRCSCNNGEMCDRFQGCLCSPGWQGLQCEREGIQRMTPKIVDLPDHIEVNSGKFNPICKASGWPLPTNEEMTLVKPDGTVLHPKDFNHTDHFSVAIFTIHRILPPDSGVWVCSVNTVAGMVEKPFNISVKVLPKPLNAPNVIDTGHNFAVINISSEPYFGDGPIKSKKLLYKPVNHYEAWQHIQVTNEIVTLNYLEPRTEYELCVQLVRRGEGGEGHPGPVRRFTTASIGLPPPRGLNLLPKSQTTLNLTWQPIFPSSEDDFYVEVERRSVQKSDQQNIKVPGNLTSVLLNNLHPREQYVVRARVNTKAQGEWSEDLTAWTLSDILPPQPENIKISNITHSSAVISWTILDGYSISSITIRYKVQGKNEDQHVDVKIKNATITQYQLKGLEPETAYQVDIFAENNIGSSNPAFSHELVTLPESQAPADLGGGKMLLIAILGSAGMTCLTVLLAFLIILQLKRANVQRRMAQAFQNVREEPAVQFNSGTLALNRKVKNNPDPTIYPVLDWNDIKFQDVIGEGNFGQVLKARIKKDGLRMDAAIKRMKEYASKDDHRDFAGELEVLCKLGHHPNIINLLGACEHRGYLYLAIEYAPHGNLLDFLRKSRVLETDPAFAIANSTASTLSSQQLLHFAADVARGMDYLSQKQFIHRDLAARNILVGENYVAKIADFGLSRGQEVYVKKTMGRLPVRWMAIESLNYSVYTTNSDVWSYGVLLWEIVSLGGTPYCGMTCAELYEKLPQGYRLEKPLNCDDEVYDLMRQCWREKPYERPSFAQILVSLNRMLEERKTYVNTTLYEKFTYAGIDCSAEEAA
- ASSAY EXPLANATION: Kinase panel (mobility shift)
- Assay type: biochemical
Recorded inhibition at 5 µM, one value per entry.

{"STRUCTURE AS SMILES": "CNC(=O)c1cc(Oc2ccc(NC(=O)c3nc(COC)oc3-c3ccc(F)cc3)cc2F)ccn1", "STUDY TARGET": "TIE2 (Homo sapiens, UniProt Q02763)", "inhibition at 5 µM": "80 to 89%"}
{"STRUCTURE AS SMILES": "CNC(=O)c1cc(Oc2ccc(NC(=O)c3nc(NC)oc3-c3ccc(F)cc3)cc2F)ccn1", "STUDY TARGET": "TIE2 (Homo sapiens, UniProt Q02763)", "inhibition at 5 µM": "50 to 79%"}
{"STRUCTURE AS SMILES": "CNC(=O)c1cc(Oc2ccc(NC(=O)c3nc(SC)oc3-c3ccc(F)s3)cc2F)ccn1", "STUDY TARGET": "TIE2 (Homo sapiens, UniProt Q02763)", "inhibition at 5 µM": "< 50%"}
{"STRUCTURE AS SMILES": "CNC(=O)c1cc(Oc2ccc(NC(=O)c3nc(OCC(F)(F)F)oc3-c3ccc(F)cc3)cc2F)ccn1", "STUDY TARGET": "TIE2 (Homo sapiens, UniProt Q02763)", "inhibition at 5 µM": "50 to 79%"}
